- TARGET_SYSTEM: KRas^G12C (Homo sapiens, UniProt P01116, G12C)
- Construct: Biotinylated KRas (corresponding to amino acids 1-169, produced at Accelegan Inc.); biotin (biotinylated); purchased Accelegan Inc
- Sequence (P01116 1-169 isoform P01116-2 G12C): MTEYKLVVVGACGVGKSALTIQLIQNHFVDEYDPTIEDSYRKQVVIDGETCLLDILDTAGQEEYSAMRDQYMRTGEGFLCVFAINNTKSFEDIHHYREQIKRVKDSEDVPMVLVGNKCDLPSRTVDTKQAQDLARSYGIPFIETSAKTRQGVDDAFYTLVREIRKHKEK
- TEST_DESCRIPTION: KRas binding assay (TR-FRET tracer displacement), KRas G12C
- RUN_CONDITIONS: TR-FRET tracer displacement, KRas G12C
ENDPOINT_NAME: log10(IC50) (log10 of the value in nM)
Scale: decimal log of IC50, IC50 in nM.

Field: example entries. Status: answers known.
{"MOLECULE": "Oc1cc(-c2ncc3c(N4C[C@@H]5C[C@H](C4)[C@H](O)C5)nc(OC[C@@]45CCCN4C[C@H](F)C5)nc3c2F)c2ccccc2c1F", "log10(IC50)": 1.87}
{"MOLECULE": "Cc1cc2[nH]cnc2c(-c2ncc3c(N4CCC[C@@](C)(O)C4)nc(OCC45CCCN4CCC5)nc3c2F)c1C", "log10(IC50)": 2.30}
{"MOLECULE": "C[C@@H]1C[C@@H]1c1c(Cl)cc(O)cc1-c1ncc2c(N3CC4CCC(C3)N4)nc(OC[C@@]34CCCN3C/C(=C\\F)C4)nc2c1F", "log10(IC50)": 0.48}
{"MOLECULE": "Cc1cc2c(c(-c3ncc4c(N5CCC[C@@](C)(O)C5)nc(OCC56CCCN5CCC6)nc4c3F)c1C)CC(=O)N2", "log10(IC50)": 2.68}
{"MOLECULE": "Cc1cc2[nH]c(=O)[nH]c2c(-c2ncc3c(N4CCC[C@@](C)(O)C4)nc(OCC45CCCN4CCC5)nc3c2F)c1C", "log10(IC50)": 3.18}

Kindly consider the entry below.
# input Any idea what its log10(IC50) is? The molecule is C#Cc1c(F)ccc2cc(O)cc(-c3ncc4c(N5CCCC6(CCO6)C5)nc(OC[C@@]56CCCN5C[C@H](F)C6)nc4c3F)c12 (stereo partly shown)
# output 0.85

====

- TARGET_SYSTEM: KRas^G12V (Homo sapiens, UniProt P01116, G12V)
- Construct: Biotinylated KRas (corresponding to amino acids 1-169, produced at Accelegan Inc.); biotin (biotinylated); purchased Accelegan Inc
- Sequence (P01116 1-169 isoform P01116-2 G12V): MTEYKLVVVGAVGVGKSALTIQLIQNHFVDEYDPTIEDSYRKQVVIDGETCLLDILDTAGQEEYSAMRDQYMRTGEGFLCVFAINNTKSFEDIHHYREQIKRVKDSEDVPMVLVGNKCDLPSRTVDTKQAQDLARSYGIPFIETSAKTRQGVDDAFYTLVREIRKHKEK
- TEST_DESCRIPTION: KRas binding assay (TR-FRET tracer displacement), KRas G12V
IC50 under 10 nM gets True, anything at or over 10 nM gets False.

Solved entries (count: 3):
{"MOLECULE": "CN(C)C(=O)OC[C@@H]1CC[C@@]2(COc3nc(N4CCC[C@@](C)(O)C4)c4cnc(-c5cc(O)cc6ccc(F)c(F)c56)c(F)c4n3)CCCN12", "CATEGORY": "True"}
{"MOLECULE": "C=C1CN2CCCC2(COc2nc(N3CCCC4(CC(O)C4)C3)c3cnc(-c4cc(O)cc5ccc(F)c(CC)c45)c(F)c3n2)C1 (stereo not drawn)", "CATEGORY": "True"}
{"MOLECULE": "CCc1cccc2cccc(-c3ncc4c(C5CCCCC5)nc(OCC56CCCN5CCC6)nc4c3F)c12", "CATEGORY": "False"}

# input Problem: For the molecule `CCc1c(F)ccc2cc(O)cc(-c3ncc4c(N5CCC[C@@](C)(O)C5)nc(OC[C@@]56CCCN5[C@H](COC(=O)NC(C)C)CC6)nc4c3F)c12` , is IC50 under 10 nM?
# output True

# input Problem: For the molecule CCc1c(F)ccc2cc(O)cc(-c3ncc4c(N5CCCCC(n6ccnn6)C5)nc(OC[C@@]56CCCN5C[C@H](F)C6)nc4c3F)c12 (stereo partly drawn) , is IC50 under 10 nM?
# output True
